# credit: patent US11974997B2

assayTarget: human RORγt (Homo sapiens, UniProt P51449)
Construct: the full-length cDNA of human RORγt
Sequence (P51449 1-497 isoform P51449-2): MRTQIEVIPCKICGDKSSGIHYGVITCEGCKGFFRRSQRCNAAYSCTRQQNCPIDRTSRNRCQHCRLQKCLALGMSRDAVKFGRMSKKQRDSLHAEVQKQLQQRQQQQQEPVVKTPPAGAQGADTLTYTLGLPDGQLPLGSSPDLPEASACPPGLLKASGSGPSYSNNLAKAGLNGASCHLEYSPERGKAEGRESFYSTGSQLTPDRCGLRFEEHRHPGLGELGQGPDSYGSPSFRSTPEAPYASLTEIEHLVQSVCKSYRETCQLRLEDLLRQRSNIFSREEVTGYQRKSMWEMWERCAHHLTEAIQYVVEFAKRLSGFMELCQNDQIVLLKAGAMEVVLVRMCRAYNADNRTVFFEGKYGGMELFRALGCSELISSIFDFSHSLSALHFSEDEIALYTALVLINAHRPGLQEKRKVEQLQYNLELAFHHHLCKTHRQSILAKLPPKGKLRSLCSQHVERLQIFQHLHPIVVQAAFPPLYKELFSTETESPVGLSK
assayMethodText: RORE Luciferase/RORγt transactivation assay
conditionLabel: COS-7 cells, human IL-17 promoter reporter + RORγt plasmid, 20 h; read-out: IC50, inhibition of RORγt activity (luciferase)
Below is a list of entries, each paired with its recorded IC50 value.

Some entries whose results are on file:
molecule	IC50
Cc1ccc(C(NC(=O)Cc2ccc(N3CCN(S(C)(=O)=O)CC3)nc2)c2ccc(C)o2)c(N2CCCCC2)c1 (stereo not shown)	100 to 1000 nM
Cc1ccc(C(NC(=O)Cc2ccc(N3CCN(C(=O)OC(C)(C)C)CC3)nc2)c2ccc(C)o2)c(N2CCCCC2)c1 (stereo not shown)	100 to 1000 nM
Cc1ccc(C(NC(=O)Cc2cnc(N3CCC(C(=O)O)CC3)nc2)c2ccc(C)o2)c(N2CCCCC2)c1 (stereo not shown)	1000 to 10000 nM
CC(=O)N1CCN(c2cccc(CC(=O)NC(c3ccc(C)o3)c3ccc(C)cc3N3CCCCC3)n2)CC1 (stereo not shown)	< 100 nM
Cc1ccc(C(NC(=O)Cc2cnc(N3CCN(S(C)(=O)=O)CC3)nc2)c2ccc(C)o2)c(N2CCCCC2)c1 (stereo not shown)	100 to 1000 nM
Cc1ccc(C(NC(=O)Cc2cnc(N3CCCC(S(C)(=O)=O)C3)nc2)c2ccc(C)o2)c(N2CCCCC2)c1 (stereo not shown)	< 100 nM

Then there is this molecule:
// query I would be grateful if you could share the reported IC50 for Cc1ccc(C(NC(=O)Cc2ccc(N3CCNCC3)nc2)c2ccc(C)o2)c(N2CCCCC2)c1 (stereo not shown) .
// result 100 to 1000 nM

###

assayTarget: RORγt ligand-binding domain (RORγt-LBD) (Homo sapiens, UniProt P51449)
Construct: 20 nM recombinantly expressed RORγ-LBD fused to GST
Sequence (P51449 269-508 limits assumed): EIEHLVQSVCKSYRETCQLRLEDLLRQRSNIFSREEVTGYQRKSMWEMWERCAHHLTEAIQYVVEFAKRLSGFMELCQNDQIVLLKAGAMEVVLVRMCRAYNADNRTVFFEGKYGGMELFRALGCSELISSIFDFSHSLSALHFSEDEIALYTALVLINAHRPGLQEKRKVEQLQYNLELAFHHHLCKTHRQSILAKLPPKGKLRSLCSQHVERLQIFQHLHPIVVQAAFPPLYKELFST
assayMethodText: Time-resolved FRET (TR-FRET) RORγt coactivator assay
Type: biochemical
conditionLabel: GST-RORγ-LBD, biotinylated RIP140 peptide, 2 hours; read-out: IC50, coactivator displacement
pIC50: −log10 of the molar value.
attributeMeasured: pIC50

compound	attributeMeasured	recordedValue
CC(=O)N1CCN(c2nccc(CC(=O)NC(c3ccc(C)o3)c3ccc(C)cc3N3CCCCC3)n2)CC1 (centres unmarked)	pIC50	> 7.00
Cc1ccc(C(NC(=O)Cc2cnc(N3CCCC(S(C)(=O)=O)C3)nc2)c2ccc(C)o2)c(N2CCCCC2)c1 (centres unmarked)	pIC50	> 7.00
CC(=O)N1CCN(c2cccc(CC(=O)NC(c3ccc(C)o3)c3ccc(C)cc3N3CCCCC3)n2)CC1 (centres unmarked)	pIC50	> 7.00

// query I would be grateful if you could share the reported pIC50 for Cc1ccc(C(NC(=O)Cc2cnc(N3CCC(S(C)(=O)=O)CC3)nc2)c2ccc(C)o2)c(N2CCCCC2)c1 (centres unmarked) .
// result > 7.00

// query I would be grateful if you could share the reported pIC50 for Cc1ccc(C(NC(=O)Cc2ccc(N3CCC(S(C)(=O)=O)CC3)nc2)c2ccc(C)o2)c(N2CCCCC2)c1 (centres unmarked) .
// result > 7.00

// query I would be grateful if you could share the reported pIC50 for CC(=O)C1CCN(c2ncc(CC(=O)NC(c3ccc(C)o3)c3ccc(C)cc3C)cn2)CC1 (centres unmarked) .
// result 6.00 to 7.00

// query I would be grateful if you could share the reported pIC50 for CC(=O)N1CCN(c2cncc(CC(=O)NC(c3ccc(C)o3)c3ccc(C)cc3N3CCCCC3)c2)CC1 (centres unmarked) .
// result > 7.00

// query I would be grateful if you could share the reported pIC50 for Cc1ccc(C(NC(=O)Cc2ccc(N3CCN(S(C)(=O)=O)CC3)nc2)c2ccc(C)o2)c(N2CCCCC2)c1 (centres unmarked) .
// result > 7.00

// query I would be grateful if you could share the reported pIC50 for Cc1ccc(C(NC(=O)Cc2ccc(N3CCN(C(=O)OC(C)(C)C)CC3)nc2)c2ccc(C)o2)c(N2CCCCC2)c1 (centres unmarked) .
// result 6.00 to 7.00

// query I would be grateful if you could share the reported pIC50 for CC(=O)C1CCN(c2ncc(CC(=O)NC(c3ccc(C)o3)c3ccc(C)cc3N3CCCCC3)cn2)CC1 (centres unmarked) .
// result 6.00 to 7.00

// query I would be grateful if you could share the reported pIC50 for Cc1ccc(C(NC(=O)Cc2cnc(N3CCN(S(C)(=O)=O)CC3)nc2)c2ccc(C)o2)c(N2CCCCC2)c1 (centres unmarked) .
// result > 7.00

// query I would be grateful if you could share the reported pIC50 for CC(=O)N1CCN(c2ncc(C3(C(=O)NC(c4ccc(C)o4)c4ccc(C)cc4N4CCCCC4)CC3)cn2)CC1 (centres unmarked) .
// result > 7.00

// query I would be grateful if you could share the reported pIC50 for Cc1ccc(C(NC(=O)Cc2ccc(N3CCNCC3)nc2)c2ccc(C)o2)c(N2CCCCC2)c1 (centres unmarked) .
// result > 7.00
